B1: DLC1 (parent)
chain: NDDSADYQHFLQDCVDGLFKEVKE

# Variants of: B1
# method summary: protein stability index of a GFP-peptide fusion (GPS, HEK-293T) (PSI 1-6); higher = more stable;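 note: lentivirally expressed fusions sorted by FACS into six bins by GFP to DsRed ratio, PSI derived from sequencing read proportions per bin multiplied by bin number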
# details: c terminus: a fixed tail appended

var: G17C
protein stability index: 1.71
--
var: Q8T
protein stability index: 2.44
--
var: L11C
protein stability index: 3.07
--
var: D6T
protein stability index: 2.5
--
var: S4E
protein stability index: 1.63
--
var: F10K
protein stability index: 3.6
--
var: V22F
protein stability index: 3.84
--
var: Y7V
protein stability index: 3
--
var: Q8V
protein stability index: 2.93
--
var: A5Y
protein stability index: 2.17
--
var: A5L
protein stability index: 2.73
--
var: C14A
protein stability index: 2.33
--
var: E24N
protein stability index: 2.5
--
var: Q8S
protein stability index: 2.88
--
var: N1M
protein stability index: 1.79
--
var: Y7L
protein stability index: 3.03
--
var: D2W
protein stability index: 2.15
--
var: E21T
protein stability index: 1.98
--
var: D13K
protein stability index: 2.05
--
var: V15A
protein stability index: 4.04
--
var: D16P
protein stability index: 4.34
--
var: V15P
protein stability index: 4.6
